# target or system: Biotinylated hPK (Homo sapiens)
# Construct: IHPKA, from human plasma; purchased Innovative Research, Novi, MI, USA IHPKA; host or cells: human plasma
# Sequence (P03952 20-638): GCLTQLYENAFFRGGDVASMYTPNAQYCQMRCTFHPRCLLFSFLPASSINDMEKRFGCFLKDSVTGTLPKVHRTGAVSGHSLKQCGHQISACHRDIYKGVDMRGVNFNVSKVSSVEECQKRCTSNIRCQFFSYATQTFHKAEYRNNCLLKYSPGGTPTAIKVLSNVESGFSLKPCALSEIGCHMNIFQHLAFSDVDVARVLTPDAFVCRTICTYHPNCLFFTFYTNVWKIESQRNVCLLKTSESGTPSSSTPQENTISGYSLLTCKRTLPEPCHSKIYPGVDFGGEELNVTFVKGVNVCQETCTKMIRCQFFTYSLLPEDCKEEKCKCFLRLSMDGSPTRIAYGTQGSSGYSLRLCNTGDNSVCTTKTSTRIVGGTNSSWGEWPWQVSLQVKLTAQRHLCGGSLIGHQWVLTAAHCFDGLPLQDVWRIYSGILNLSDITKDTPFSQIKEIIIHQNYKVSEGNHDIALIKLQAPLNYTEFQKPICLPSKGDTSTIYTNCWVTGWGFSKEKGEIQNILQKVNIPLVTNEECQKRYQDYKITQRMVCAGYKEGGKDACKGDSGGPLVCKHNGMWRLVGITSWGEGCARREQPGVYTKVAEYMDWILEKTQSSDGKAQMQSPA
# test: Phage selections, abundance of sequences in selection outputs
# Assay type: binding
# experimental setup: randomised WPAR motif at positions 2, 3, 4 & 5 within the 06-34-03 sequence
test readout: Frequency (relative abundance in the total selection outputs)
Please reply with the value in numeric form only.

- substance: "SEQ ID NO: 74 (CSWPSRCTHQDLC; Synthetic sequence Kallikrein binder identified from selections using a randomised WPAR motif at positions 2, 3, 4 & 5 within the 06-34-03 sequence of PCT/EP2012/069898 (SEQ ID NO 58))"
  target or system: "Biotinylated hPK (Homo sapiens)"
  readout number: 51

As a next step, examine the substance that follows.
Exercise: Give its Frequency (relative abundance in the total selection outputs) value. Item: SEQ ID NO: 114 (CSWQARCTHQDLC; Synthetic sequence Kallikrein binder identified from selections using a randomised WPAR motif at positions 2, 3, 4 & 5 within the 06-34-03 sequence of PCT/EP2012/069898 (SEQ ID NO 58))
Key: 1

---

Recorded Observable in rat plasma, for days, one value per entry.
# test: Plasma stability profiling method 1 (35% plasma, MALDI-TOF, qualitative)
# Format: in vitro ADME, rat
# experimental setup: 35% rat plasma, 37 deg C, method 1, comparative estimate
Numbered stars: 1 amine (or outer) side, 2 acyl side, 3 side chain; on linkers, the order of the positions; unused ones are H or OH. Bridge positions count the residues as written; N and C are the ends. Square brackets hold non-standard residues; d marks the D form. Peptide text beside a SMILES is read from it. Tpi = O=C(O)[C@@H]1Cc2c([nH]c3ccccc23)CN1; X1 = O=C([C@@H]1Cc2ccccc2N1[*:1])[*:2]; TBMB = c1c(C[*:1])cc(C[*:3])cc1C[*:2]
Write the answer as a number in days, unit excluded.

- compound: "CC(=O)N[C@H]1CSCc2cc3cc(c2)CSC[C@H](NC(=O)[C@H](CCCNC(=N)N)NC(=O)[C@H](C)NC(=O)[C@@H]2CCCN2C(=O)[C@@H]2Cc4c([nH]c5ccccc45)CN2C(=O)[C@H](CO)NC1=O)C(=O)N[C@@H](CC(C)C)C(=O)N[C@@H](Cc1c[nH]cn1)C(=O)N[C@@H](CCC(N)=O)C(=O)N[C@@H](CC(=O)O)C(=O)N[C@@H](CC(C)C)C(=O)N[C@H](C(N)=O)CSC3 [Ac-(06-34-18) NorHar2] (Ac-CS[Tpi]PARCLHQDLC-NH2; linker 1-7-13 via TBMB)"
  Observable in rat plasma, for days [days]: 2

Exercise: What does the record list as Observable in rat plasma, for days for CC(=O)N[C@H]1CSCc2cc3cc(c2)CSC[C@H](NC(=O)[C@H](CCCNC(=N)N)NC(=O)[C@H](C)NC(=O)[C@@H]2Cc4ccccc4N2C(=O)[C@H](Cc2c[nH]c4ccccc24)NC(=O)[C@H](CO)NC1=O)C(=O)N[C@@H](CC(C)C)C(=O)N[C@@H](Cc1c[nH]cn1)C(=O)N[C@@H](CCC(N)=O)C(=O)N[C@@H](CC(=O)O)C(=O)N[C@@H](CC(C)C)C(=O)N[C@H](C(N)=O)CSC3 [Ac-(06-34-18) Ind3] (Ac-CSW[X1]ARCLHQDLC-NH2; linker 1-7-13 via TBMB) ?
Key: 2

Values were extracted from patent US11912794B2.
